System: OVCAR-3 ovarian
measurement notes: NCI tumour cell line growth inhibition, 48 h
property name: TGI

| compound | reported value |
| --- | --- |
| CC1(C)N=C(N)N=C(N)N1c1ccc(OCC(=O)Nc2cccc(S(=O)(=O)F)c2)c(Cl)c1 | > 76.8 µM |
| CCN(CC)CCC(=O)Nc1ccc(Cn2nnc3c2C(=O)c2nnn(Cc4ccc(NC(=O)CCN(CC)CC)cc4)c2C3=O)cc1 | 0.778 µM |
| C=C(CCOC)CCC1CCCCC(=C)C1=O (centres undefined) | > 100 µM |
| COC(=O)C(C)N1C(=O)c2ccccc2I1OC(C)=O (centres undefined) | > 100 µM |
